Assay: Antioxidant activity assessed as trolox equivalent of Cu2+ reducing activity incubated for 30 mins by CUPRAC assay relative to trolox
Type: functional
Measure: Ratio

Please review the entries below; each comes with its answer.
COc1cc(/C=N/NC(=O)c2cc3ccc4c(c3o2)C=CC(C)(C)O4)cc(I)c1O; 0.99
Cc1cc(/C=N/NC(=O)c2cc3ccc4c(c3o2)C=CC(C)(C)O4)cc(C)c1O; 1.11
COc1cc(/C=N/NC(=O)c2cc3ccc4c(c3o2)C=CC(C)(C)O4)cc([N+](=O)[O-])c1O; 1.52
COc1cc(O)c(/C=N/NC(=O)c2cc3ccc4c(c3o2)C=CC(C)(C)O4)c(OC)c1; 0.97

Give the reported Ratio for this compound. CC1(C)C=Cc2c(ccc3cc(C(=O)N/N=C/c4ccc(O)c(O)c4O)oc23)O1
2.89

Give the reported Ratio for this compound. CC1(C)C=Cc2c(ccc3cc(C(=O)N/N=C/c4ccccc4O)oc23)O1
0.48

Give the reported Ratio for this compound. COc1cc(/C=N/NC(=O)c2cc3ccc4c(c3o2)C=CC(C)(C)O4)cc(OC)c1O
2.22

Give the reported Ratio for this compound. COc1ccc(/C=N/NC(=O)c2cc3ccc4c(c3o2)C=CC(C)(C)O4)c(O)c1
1.01

Give the reported Ratio for this compound. Cc1ccc(O)c(/C=N/NC(=O)c2cc3ccc4c(c3o2)C=CC(C)(C)O4)c1
0.95

Give the reported Ratio for this compound. CC1(C)C=Cc2c(ccc3cc(C(=O)N/N=C/c4cc(O)c(O)cc4O)oc23)O1
2.43

Give the reported Ratio for this compound. O=C1O[C@H]([C@@H](O)CO)C(O)=C1O
0.72

Give the reported Ratio for this compound. CC1(C)C=Cc2c(ccc3cc(C(=O)N/N=C/c4ccc(O)cc4O)oc23)O1
1.42

Give the reported Ratio for this compound. COc1ccc(O)c(/C=N/NC(=O)c2cc3ccc4c(c3o2)C=CC(C)(C)O4)c1
1.22

Give the reported Ratio for this compound. CC1(C)C=Cc2c(ccc3cc(C(=O)N/N=C/c4cc(O)cc(O)c4)oc23)O1
1.27

Give the reported Ratio for this compound. CC1(C)C=Cc2c(ccc3cc(C(=O)N/N=C/c4c(O)cc(O)cc4O)oc23)O1
1.36

Give the reported Ratio for this compound. CC1(C)C=Cc2c(ccc3cc(C(=O)N/N=C/c4ccc(O)c(O)c4)oc23)O1
3.97

Give the reported Ratio for this compound. COc1ccc(/C=N/NC(=O)c2cc3ccc4c(c3o2)C=CC(C)(C)O4)cc1O
1.36

Give the reported Ratio for this compound. COc1cccc(/C=N/NC(=O)c2cc3ccc4c(c3o2)C=CC(C)(C)O4)c1O
0.85

Give the reported Ratio for this compound. COc1cc(/C=N/NC(=O)c2cc3ccc4c(c3o2)C=CC(C)(C)O4)cc(Br)c1O
1.09

====

Test: Antioxidant activity assessed as trolox equivalent of Cu2+ reducing activity incubated for 30 mins by CUPRAC assay relative to trolox
Type: functional
Measure: Ratio
Lab note: jot the number down without any unit.

Please review the entries below; each comes with its answer.
CC1(C)C=Cc2c(ccc3cc(C(=O)N/N=C/c4cccc(O)c4O)oc23)O1; 1.75
CC1(C)C=Cc2c(ccc3cc(C(=O)N/N=C/c4cc(O)ccc4O)oc23)O1; 1.8
CC1(C)C=Cc2c(ccc3cc(C(=O)N/N=C/c4cc(O)c(O)c(O)c4)oc23)O1; 2.59
CC1(C)C=Cc2c(ccc3cc(C(=O)N/N=C/c4ccc(O)cc4)oc23)O1; 0.79

Shift focus to the following entry.
Give the reported Ratio for this compound. COc1cc(/C=N/NC(=O)c2cc3ccc4c(c3o2)C=CC(C)(C)O4)ccc1O
1.75
